Test: recombinant barcode read abundance after kanamycin selection (control-corrected) (log10(CPM+1)); higher = more efficient recombination; sequences stand for … in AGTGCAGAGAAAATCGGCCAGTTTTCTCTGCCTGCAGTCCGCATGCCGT…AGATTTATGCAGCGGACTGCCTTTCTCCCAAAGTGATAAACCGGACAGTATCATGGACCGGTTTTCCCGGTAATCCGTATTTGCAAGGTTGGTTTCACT; site = the 11-nt target;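 further: IS621 recombinase and bridge RNA in Escherichia coli cells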
Measured recombinant barcode read abundance (log10) values are reported for all entries that follow.
Answer with a number only.

Reference set, count: 8
TTAGACCCTTGGGTTCTAACCTGTTGCAG (site TTAGACCCTCT)	3.46
CGAATCTCTTGGGTTCTAACCTGTTGCCT (site CGAATCGCTAG)	0
ACCAGATCTTGGGTTCTAACCTGTTGCCT (site ACCAGATCTAG)	0.846
GACCTACCTTGGGTTCTAACCTGTTGCCT (site GACATACCTAG)	0.0646
ATCGGACCTTGGGTTCTAACCTGTTGCCT (site ATCGGATCTAG)	0.107
GGTGCTCCTTGGGTTCTAACCTGTTGCAA (site GGTGCTCCTGT)	0.0326
TATGAGGCTTGGGTTCTAACCTGTTGCCT (site TATGAGGCTAG)	0.433
CTAATGTCTTGGGTTCTAACCTGTTGCCT (site CTAATGTCTAG)	1.65

Bench note: what recombinant barcode read abundance (log10) did TGAACGCCTTGGGTTCTAACCTGTTGCCT (site AGTACGCCTAG) show?
0.0861

Then TGTGTCCCTTGGGTTCTAACCTGTTGCCT (site TGCGTCCCTAG) ?
0.139

Then TAGAGCTCTTGGGTTCTAACCTGTTGCGT (site TAGAGCTCTAC) ?
1.25

----------
Assay: recombinant barcode read abundance after kanamycin selection (control-corrected) (log10(CPM+1)); higher = more efficient recombination; sequences stand for … in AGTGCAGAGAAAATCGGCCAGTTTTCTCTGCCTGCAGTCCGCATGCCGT…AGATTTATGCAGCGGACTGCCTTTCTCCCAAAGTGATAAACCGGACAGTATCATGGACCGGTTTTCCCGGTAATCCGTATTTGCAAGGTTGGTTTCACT; site = the 11-nt target
Note to self: values exactly at 0.08 are yes (1). So recombinant barcode read abundance (log10) at or above 0.08 is yes (1), below is no (0).

Some solved cases for reference:
GAAGCTACTTGGGTTCTAACCTGTTGCGT (site GATGCTACTCC)	no (0)
TGGTCCGCTTGGGTTCTAACCTGTTGCCT (site TGGTACGCTAG)	yes (1)
TAGATGTCTTGGGTTCTAACCTGTTGCGG (site TAGAAGTCTCT)	no (0)
CCGGTCCCTTGGGTTCTAACCTGTTGCAG (site GGACAGTCTAC)	yes (1)
ATTTGGACTTGGGTTCTAACCTGTTGCCT (site ATTTGGACTAG)	yes (1)

Threshold query (recombinant barcode read abundance (log10) >= 0.08) on CAATGGTCTTGGGTTCTAACCTGTTGCCT (site CAATGGTCTAT)
yes (1)

Then GGTGGGACTTGGGTTCTAACCTGTTGCAC (site AAATCTGCTAG) ?
yes (1)

Then GTCTCGTCTTGGGTTCTAACCTGTTGCTT (site GTCTCGTCTAA) ?
yes (1)

Then CAGTAATCTTGGGTTCTAACCTGTTGCCT (site CAGTACTCTAG) ?
yes (1)

Then ACTTAGACTTGGGTTCTAACCTGTTGCCA (site ACTTAGACTGG) ?
no (0)
